- protocolSummary: in vivo
- runConditions: ratio of the dose to decrease heart rate to the dose to lower arterial pressure
Give selectivity ratio for every item shown.
One number for each entry.

compound	selectivity ratio
COc1ccc([C@@H]2Sc3ccccc3N(CCN(C)C)C(=O)[C@@H]2OC(C)=O)cc1 [diltiazem, reference compound]	0.53

Proceeding to the next compound to report its selectivity ratio.
Ask | # get_value(readout='selectivity ratio', item= COc1ccc(C(C#N)(CCCN(C)C2CCc3ccccc3C2)C(C)C)cc1OC.O=C(O)CC(O)(CC(=O)O)C(=O)O (centres unmarked) [Example 8] )
Reply | 3.1

----------
- measuredOn: Isolated thoracic aortic rings from the male SHR (Rattus norvegicus, UniProt P22002)
- Sequence (P22002 whole entry): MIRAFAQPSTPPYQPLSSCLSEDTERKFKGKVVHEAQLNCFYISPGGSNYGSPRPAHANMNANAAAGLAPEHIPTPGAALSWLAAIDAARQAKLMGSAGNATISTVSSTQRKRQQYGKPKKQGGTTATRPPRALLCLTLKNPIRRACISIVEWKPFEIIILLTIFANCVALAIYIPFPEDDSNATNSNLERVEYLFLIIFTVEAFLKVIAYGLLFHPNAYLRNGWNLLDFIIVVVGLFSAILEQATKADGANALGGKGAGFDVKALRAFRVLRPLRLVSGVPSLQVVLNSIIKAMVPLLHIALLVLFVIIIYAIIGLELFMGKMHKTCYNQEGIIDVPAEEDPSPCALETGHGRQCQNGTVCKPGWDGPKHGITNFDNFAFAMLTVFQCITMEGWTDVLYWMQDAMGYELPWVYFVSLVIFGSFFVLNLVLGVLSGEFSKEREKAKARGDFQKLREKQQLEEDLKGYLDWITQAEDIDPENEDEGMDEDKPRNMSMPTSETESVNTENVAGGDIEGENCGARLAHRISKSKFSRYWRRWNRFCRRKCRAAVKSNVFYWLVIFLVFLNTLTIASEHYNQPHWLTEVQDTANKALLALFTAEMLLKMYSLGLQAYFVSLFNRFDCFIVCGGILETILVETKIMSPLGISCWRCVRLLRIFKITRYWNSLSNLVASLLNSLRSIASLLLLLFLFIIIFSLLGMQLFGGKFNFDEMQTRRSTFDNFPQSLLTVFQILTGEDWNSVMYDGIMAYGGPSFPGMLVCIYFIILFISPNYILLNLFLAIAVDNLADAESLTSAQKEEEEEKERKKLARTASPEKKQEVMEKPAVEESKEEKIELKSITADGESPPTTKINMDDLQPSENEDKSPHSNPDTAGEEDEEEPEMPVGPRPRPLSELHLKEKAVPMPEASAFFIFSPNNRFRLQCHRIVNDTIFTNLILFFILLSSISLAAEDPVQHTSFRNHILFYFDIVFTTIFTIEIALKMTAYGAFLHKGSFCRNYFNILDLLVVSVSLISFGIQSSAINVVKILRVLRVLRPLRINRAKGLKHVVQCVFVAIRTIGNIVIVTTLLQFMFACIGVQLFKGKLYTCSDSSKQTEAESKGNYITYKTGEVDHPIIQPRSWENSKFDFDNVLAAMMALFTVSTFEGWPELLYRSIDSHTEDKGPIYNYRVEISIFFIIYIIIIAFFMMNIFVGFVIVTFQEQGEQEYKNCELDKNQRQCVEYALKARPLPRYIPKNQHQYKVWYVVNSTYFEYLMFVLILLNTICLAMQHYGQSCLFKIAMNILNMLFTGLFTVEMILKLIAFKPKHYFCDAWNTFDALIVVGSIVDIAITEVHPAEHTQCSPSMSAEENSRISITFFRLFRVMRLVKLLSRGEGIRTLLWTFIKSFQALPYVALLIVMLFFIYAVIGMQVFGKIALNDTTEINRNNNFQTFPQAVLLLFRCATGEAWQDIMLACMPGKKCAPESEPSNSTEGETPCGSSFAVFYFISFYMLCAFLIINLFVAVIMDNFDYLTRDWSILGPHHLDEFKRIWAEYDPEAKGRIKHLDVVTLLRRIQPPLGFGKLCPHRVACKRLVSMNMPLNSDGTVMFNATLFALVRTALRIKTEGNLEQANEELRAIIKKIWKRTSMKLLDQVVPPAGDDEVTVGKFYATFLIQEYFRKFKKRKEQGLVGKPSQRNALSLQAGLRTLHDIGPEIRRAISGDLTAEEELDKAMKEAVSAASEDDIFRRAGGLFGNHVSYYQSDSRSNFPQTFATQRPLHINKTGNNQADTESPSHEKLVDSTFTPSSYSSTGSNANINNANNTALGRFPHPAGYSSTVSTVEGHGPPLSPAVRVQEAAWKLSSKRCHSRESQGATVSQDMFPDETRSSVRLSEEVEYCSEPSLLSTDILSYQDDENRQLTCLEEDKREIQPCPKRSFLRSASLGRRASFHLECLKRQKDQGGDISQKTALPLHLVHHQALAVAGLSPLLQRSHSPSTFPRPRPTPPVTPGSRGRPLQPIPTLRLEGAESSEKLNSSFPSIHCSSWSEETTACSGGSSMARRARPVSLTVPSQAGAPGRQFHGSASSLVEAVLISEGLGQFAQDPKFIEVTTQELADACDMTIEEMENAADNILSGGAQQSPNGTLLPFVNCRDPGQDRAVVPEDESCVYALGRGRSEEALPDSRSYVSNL
- Sequence (P54290 25-944 partner limits assumed): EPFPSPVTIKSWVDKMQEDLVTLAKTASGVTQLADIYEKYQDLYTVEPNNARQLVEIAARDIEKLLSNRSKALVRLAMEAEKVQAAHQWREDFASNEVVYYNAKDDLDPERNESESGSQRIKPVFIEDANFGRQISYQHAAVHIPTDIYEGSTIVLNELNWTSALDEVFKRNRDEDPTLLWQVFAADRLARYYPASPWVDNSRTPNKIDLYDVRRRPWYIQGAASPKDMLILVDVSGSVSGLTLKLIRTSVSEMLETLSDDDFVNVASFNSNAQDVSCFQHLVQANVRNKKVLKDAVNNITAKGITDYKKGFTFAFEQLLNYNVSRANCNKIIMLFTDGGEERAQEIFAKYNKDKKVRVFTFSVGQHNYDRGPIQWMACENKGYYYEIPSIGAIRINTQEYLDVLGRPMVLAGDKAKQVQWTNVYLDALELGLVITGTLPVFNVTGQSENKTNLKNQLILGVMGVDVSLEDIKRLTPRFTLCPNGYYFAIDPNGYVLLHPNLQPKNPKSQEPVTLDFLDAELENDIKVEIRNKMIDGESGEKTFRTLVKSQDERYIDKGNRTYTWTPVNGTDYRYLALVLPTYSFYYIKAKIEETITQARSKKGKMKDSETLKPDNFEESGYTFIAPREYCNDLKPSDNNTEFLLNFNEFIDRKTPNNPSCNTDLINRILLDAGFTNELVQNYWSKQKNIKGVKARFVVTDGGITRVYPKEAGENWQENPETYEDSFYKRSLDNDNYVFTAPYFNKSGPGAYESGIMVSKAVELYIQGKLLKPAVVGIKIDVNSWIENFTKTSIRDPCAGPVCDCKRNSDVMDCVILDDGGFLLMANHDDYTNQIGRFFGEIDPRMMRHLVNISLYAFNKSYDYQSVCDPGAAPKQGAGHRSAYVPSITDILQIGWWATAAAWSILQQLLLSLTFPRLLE
- Sequence (P54290 945-1091 partner limits assumed): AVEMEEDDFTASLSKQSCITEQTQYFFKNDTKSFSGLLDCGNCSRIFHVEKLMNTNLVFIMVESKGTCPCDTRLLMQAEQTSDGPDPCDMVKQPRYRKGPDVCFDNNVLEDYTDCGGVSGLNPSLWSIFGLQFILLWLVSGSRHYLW
- protocolSummary: Calcium antagonism in vascular smooth muscle (isolated thoracic aortic rings from male SHR)
- Assay type: cell-based
- runConditions: read-out: pA2 Ca^++ Antagonism (converted)
experimentalEndpoint: Kb

molecule	experimentalEndpoint	valueReported
COc1ccc(C(C#N)(CCCN(C)C2CCc3cc(OC)c(OC)cc3C2)C(C)C)cc1OC.O=C(O)CC(O)(CC(=O)O)C(=O)O (centres unmarked)	Kb	126 nM

Batch request: Kb per item, same order as input.
1. COc1ccc(C(C#N)(CCCN(C)C2CCc3ccccc3C2)C(C)C)cc1OC.O=C(O)CC(O)(CC(=O)O)C(=O)O (centres unmarked)
2. COc1ccc2c(c1)CCC(N(C)CCCC(C#N)(c1ccc(OC)c(OC)c1)C(C)C)C2.O=C(O)CC(O)(CC(=O)O)C(=O)O (centres unmarked)

Reply |
1: 50.1 nM; 2: 25.1 nM

Batch request: Kb per item, same order as input.
1. COc1ccc2c(c1)CC(N(C)CCCC(C#N)(c1ccc(OC)c(OC)c1)C(C)C)CC2.O=C(O)CC(O)(CC(=O)O)C(=O)O (centres unmarked)
2. COc1ccc(C(C#N)(CCCN(C)C2CCc3c(cccc3OC)C2)C(C)C)cc1OC.O=C(O)CC(O)(CC(=O)O)C(=O)O (centres unmarked)

Reply |
1. 39.8 nM
2. 50.1 nM

----------
Give selectivity ratio for every item shown.
- protocolSummary: in vivo
- runConditions: ratio of the dose required to slow or block atrial-ventricular conduction to the dose required to lower arterial pressure by 20 mmHg
Give bare numbers.

compound	selectivity ratio
COc1ccc([C@@H]2Sc3ccccc3N(CCN(C)C)C(=O)[C@@H]2OC(C)=O)cc1 [diltiazem, reference compound]	0.53

Proceeding to the next compound to report its selectivity ratio.
Ask | # get_value(readout='selectivity ratio', item= COc1ccc(C(C#N)(CCCN(C)C2CCc3ccccc3C2)C(C)C)cc1OC.O=C(O)CC(O)(CC(=O)O)C(=O)O (centres unmarked) )
Reply | 4
